# System: RARb homodimer (NR concentration 270 nM)
# PROTOCOL NOTES: PBM binding z-score (relative to random genomic background probes); higher = stronger binding; sequences stand for … in GC…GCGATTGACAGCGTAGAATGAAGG
ENDPOINT LABEL: PBM binding z-score
Would you mind answering with just the numeric figure?

Some solved entries appear below for comparison.
* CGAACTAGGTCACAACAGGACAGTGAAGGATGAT | 3.02
* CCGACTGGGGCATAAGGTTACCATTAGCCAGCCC | 1.82
* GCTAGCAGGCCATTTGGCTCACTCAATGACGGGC | -1.05
* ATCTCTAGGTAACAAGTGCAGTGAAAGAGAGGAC | 0.571

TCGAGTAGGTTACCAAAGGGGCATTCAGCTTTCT yielded PBM binding z-score of 1.34

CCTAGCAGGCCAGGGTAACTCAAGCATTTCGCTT yielded PBM binding z-score of -0.537

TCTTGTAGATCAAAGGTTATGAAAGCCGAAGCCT yielded PBM binding z-score of 1.25

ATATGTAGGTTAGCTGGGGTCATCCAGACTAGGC yielded PBM binding z-score of 4.24

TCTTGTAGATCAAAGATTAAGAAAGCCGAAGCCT yielded PBM binding z-score of -1.12
